Catalogue of inhibition at 1000 µg/mL readings, one per entry.
Test system: Blumeria graminis
Experiment: Fungistatic activity against Blumeria graminis infested wheat seedling assessed as inhibition of fungal infection at 1000 ug/ml applied as spray after 7 to 14 days under green house conditions relative to control
Assay type: functional
MEASURED METRIC: inhibition at 1000 µg/mL (%)

MOL | MEASURED METRIC | DATA VALUE
Oc1ccc(C(=S)Nc2ccc(OCc3ccccc3)cc2)c(O)c1 | inhibition at 1000 µg/mL | 21
Oc1ccc(C(=S)NNC(=S)Nc2ccc(F)cc2)c(O)c1 | inhibition at 1000 µg/mL | 0
N#CCc1nn(-c2ccccc2)c(NC(=S)c2ccc(O)cc2O)c1C#N | inhibition at 1000 µg/mL | 21
CC(C)(C)c1nnc(NC(=S)c2ccc(O)cc2O)s1 | inhibition at 1000 µg/mL | 21
Oc1ccc(C(=S)Nc2ccccc2-c2ccccc2)c(O)c1 | inhibition at 1000 µg/mL | 21
Oc1ccc(C(=S)n2nnc3cc(Cl)ccc32)c(O)c1 | inhibition at 1000 µg/mL | 21
O=C(Nc1ccccc1)c1ccccc1NC(=S)c1ccc(O)cc1O | inhibition at 1000 µg/mL | 41
O=C(OC/C=C/c1ccccc1)c1ccccc1NC(=S)c1ccc(O)cc1O | inhibition at 1000 µg/mL | 21
Oc1ccc(C(=S)NN=C2c3ccccc3-c3ccccc32)c(O)c1 | inhibition at 1000 µg/mL | 0
CCOC(=O)Cc1csc(NC(=S)c2ccc(O)cc2O)n1 | inhibition at 1000 µg/mL | 21
Oc1ccc(C(=S)NN=C(c2ccccc2)c2ccccc2)c(O)c1 | inhibition at 1000 µg/mL | 21
Oc1ccc(C(=S)Nc2cc(C(F)(F)F)ccc2N2CCOCC2)c(O)c1 | inhibition at 1000 µg/mL | 0
Oc1ccc(C(=S)NC(=S)c2cccnc2)c(O)c1 | inhibition at 1000 µg/mL | 21
Oc1ccc(C(=S)NNC(=S)Nc2cccc(Cl)c2)c(O)c1 | inhibition at 1000 µg/mL | 0
Oc1ccc(C(=S)Nc2ccccc2Sc2ccc(Cl)cc2)c(O)c1 | inhibition at 1000 µg/mL | 0
Oc1ccc(C(=S)n2c(Cl)nc3ccccc32)c(O)c1 | inhibition at 1000 µg/mL | 41
O=C(O)c1cc2cc(OCc3ccccc3)ccc2n1C(=S)c1ccc(O)cc1O | inhibition at 1000 µg/mL | 21
CC(C)(C)c1cc(NC(=S)c2ccc(O)cc2O)no1 | inhibition at 1000 µg/mL | 21
Oc1ccc(C(=S)Nc2ccc(Oc3ccccc3)cc2)c(O)c1 | inhibition at 1000 µg/mL | 0
